Target: PRMT5-MEP50 (Homo sapiens, UniProt O14744)
Construct: The compounds were tested by means of FP with the full-length PRMT5-MEP50 complex; made in house
Sequence (O14744 whole entry): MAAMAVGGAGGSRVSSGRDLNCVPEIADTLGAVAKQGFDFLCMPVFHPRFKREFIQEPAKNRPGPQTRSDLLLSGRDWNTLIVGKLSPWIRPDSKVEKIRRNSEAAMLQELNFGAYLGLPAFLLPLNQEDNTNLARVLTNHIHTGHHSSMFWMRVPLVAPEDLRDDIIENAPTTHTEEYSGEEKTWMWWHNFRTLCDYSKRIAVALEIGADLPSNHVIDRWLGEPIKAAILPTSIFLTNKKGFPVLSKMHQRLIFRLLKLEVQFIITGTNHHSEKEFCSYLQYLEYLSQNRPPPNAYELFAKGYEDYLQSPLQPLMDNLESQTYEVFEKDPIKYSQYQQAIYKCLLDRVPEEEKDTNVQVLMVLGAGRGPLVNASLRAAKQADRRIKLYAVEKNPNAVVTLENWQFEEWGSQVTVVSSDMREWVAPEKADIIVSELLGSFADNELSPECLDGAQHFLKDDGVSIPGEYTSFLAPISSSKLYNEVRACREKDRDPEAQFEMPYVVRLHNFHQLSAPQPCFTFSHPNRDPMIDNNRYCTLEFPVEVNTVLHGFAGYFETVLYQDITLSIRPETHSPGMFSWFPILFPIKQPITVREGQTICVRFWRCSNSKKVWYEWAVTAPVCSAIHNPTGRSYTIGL
Sequence (Q9BQA1 whole entry partner): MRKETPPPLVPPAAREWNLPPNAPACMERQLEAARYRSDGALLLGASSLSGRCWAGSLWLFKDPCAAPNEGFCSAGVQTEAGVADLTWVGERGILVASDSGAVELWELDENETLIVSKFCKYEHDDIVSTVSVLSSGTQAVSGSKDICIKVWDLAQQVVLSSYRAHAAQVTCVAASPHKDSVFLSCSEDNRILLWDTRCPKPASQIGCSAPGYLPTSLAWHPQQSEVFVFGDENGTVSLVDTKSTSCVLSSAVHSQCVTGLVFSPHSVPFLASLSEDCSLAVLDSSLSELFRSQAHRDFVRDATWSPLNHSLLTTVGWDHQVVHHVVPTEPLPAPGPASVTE
Experiment: Direct binding fluorescence polarization (FP) assay of FITC-labeled peptides
Conditions: FITC-labeled peptide 1 nM, PRMT5-MEP50 titrated, read-out: KD
Peptide text beside a SMILES is read from it. * marks the point of attachment. FITC = O=C1OC2(c3ccc(O)cc3Oc3cc(O)ccc32)c2ccc(NC(=S)*)cc21
// Kd lookup, one value per entry
# output: bare number, implied unit nM

Solved cases below.
CC(C)[C@H](NC(=O)[C@H](CCCNC(=N)N)NC(=O)[C@H](CO)NC(=O)COCCOCCNC(=S)Nc1ccc2c(c1)C(=O)OC21c2ccc(O)cc2Oc2cc(O)ccc21)C(=O)N[C@H](C(=O)N1CCC[C@H]1C(=O)NC1CC=CC[C@@H](C(=O)N[C@@H](CC(=O)O)C(=O)N[C@@H](C)C(=O)N[C@@H](CC(=O)O)C(N)=O)NC(=O)[C@H](Cc2ccccc2)NC(=O)[C@H](CCC(N)=O)NC1=O)C(C)C (stereo in doubt) [Compound 13] | 719
CC(=O)N[C@H](C(=O)N1CCC[C@H]1C(=O)NC1CCCCC[C@@H](C(=O)N[C@@H](CC(=O)O)C(=O)N[C@@H](C)C(=O)N[C@@H](CC(=O)O)C(=O)N[C@@H](CCCCNC(=S)Nc2ccc3c(c2)C(=O)OC32c3ccc(O)cc3Oc3cc(O)ccc32)C(N)=O)NC(=O)[C@H](Cc2ccccc2)NC(=O)[C@H](CCC(N)=O)NC1=O)C(C)C (stereo in doubt) [Compound 21] | 430

Switching to the query record.
Quote Kd reported for CC(=O)N[C@H](C(=O)N1CCC[C@H]1C(=O)NCC(=O)N[C@@H](CCC(N)=O)C(=O)N[C@@H](Cc1ccccc1)C(=O)N[C@@H](CC(=O)O)C(=O)N[C@@H](CC(=O)O)C(=O)N[C@@H](C)C(=O)N[C@@H](CC(=O)O)C(=O)N[C@@H](CCCCNC(=S)Nc1ccc2c(c1)C(=O)OC21c2ccc(O)cc2Oc2cc(O)ccc21)C(N)=O)C(C)C [Compound 29] (Ac-VPGQFDDADK(FITC)-NH2) please. 670

---

Each entry below lists one item and its recorded pKd value.
Target: PRMT5-MEP50 (Homo sapiens)
Construct: The compounds were tested by means of FP with the full-length PRMT5-MEP50 complex; made in house
Experiment: Direct binding fluorescence polarization (FP) assay of FITC-labeled peptides
Conditions: supplementary CSV, read-out: PRMT5-MEP50 Kd
pKd: −log10 of the molar value. Square brackets hold non-standard residues; d marks the D form. Peptide text beside a SMILES is read from it. * marks the point of attachment. FITC = O=C1OC2(c3ccc(O)cc3Oc3cc(O)ccc32)c2ccc(NC(=S)*)cc21; Cha = N[C@@H](CC1CCCCC1)C(=O)O

Recorded results for 2 molecules are shown here.
CC(=O)N[C@H](C(=O)N1CCC[C@H]1C(=O)NCC(=O)N[C@@H](CCC(N)=O)C(=O)N[C@@H](Cc1ccccc1)C(=O)N[C@@H](CC(=O)O)C(=O)N[C@@H](CC(=O)O)C(=O)N[C@@H](CC1CCCCC1)C(=O)N[C@@H](CC(=O)O)C(=O)N[C@@H](CCCCNC(=S)Nc1ccc2c(c1)C(=O)OC21c2ccc(O)cc2Oc2cc(O)ccc21)C(N)=O)C(C)C [Compound S30] (Ac-VPGQFDD[Cha]DK(FITC)-NH2) | < 6.00
CC(=O)N[C@@H](CC(=O)O)C(=O)N1CCC[C@H]1C(=O)NCC(=O)N[C@@H](CCC(N)=O)C(=O)N[C@@H](Cc1ccccc1)C(=O)N[C@@H](CC(=O)O)C(=O)N[C@@H](CC(=O)O)C(=O)N[C@@H](C)C(=O)N[C@@H](CC(=O)O)C(=O)N[C@@H](CCCCNC(=S)Nc1ccc2c(c1)C(=O)OC21c2ccc(O)cc2Oc2cc(O)ccc21)C(N)=O [Compound S6] (Ac-DPGQFDDADK(FITC)-NH2) | < 6.00

Using the record for CC(=O)N[C@@H](Cc1c[nH]c2ccccc12)C(=O)N1CCC[C@H]1C(=O)NCC(=O)N[C@@H](CCC(N)=O)C(=O)N[C@@H](Cc1ccccc1)C(=O)N[C@@H](CC(=O)O)C(=O)N[C@@H](CC(=O)O)C(=O)N[C@@H](C)C(=O)N[C@@H](CC(=O)O)C(=O)N[C@@H](CCCCNC(=S)Nc1ccc2c(c1)C(=O)OC21c2ccc(O)cc2Oc2cc(O)ccc21)C(N)=O [Compound S5] (Ac-WPGQFDDADK(FITC)-NH2) , state its measured pKd. < 6.00
